biological target: KRAS G12D/RAF1 (Homo sapiens, UniProt P01116, G12D); construct: KRAS (1-169) proteins were expressed in E. coli at 18° C; His6-MBP (N, cleaved yes); made in house; host or cells: E. coli; assay: Protein-protein interaction (PPI) HTRF assay KRAS G12D/RAF1; type: binding; conditions: KRAS G12D/RAF1, GppNHp-loaded KRAS; 30 minutes pre-incubation
Sequence (P01116 1-169 isoform P01116-2 G12D): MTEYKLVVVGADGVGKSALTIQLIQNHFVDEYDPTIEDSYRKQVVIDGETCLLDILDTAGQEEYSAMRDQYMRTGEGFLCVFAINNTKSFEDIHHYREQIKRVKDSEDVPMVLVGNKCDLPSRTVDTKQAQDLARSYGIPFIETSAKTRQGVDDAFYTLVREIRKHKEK
quantityName: IC50

Would you please look over these solved cases?
> print(dat)
                                   compound  quantityname   assayresult
1  CN(C)C(=O)c1nn2c(c1Cl)CN(c1nc(OC[C@@]34CCCN3C[C@H](F)C4)nc3c1CN(C)[C@@]1(CCCc4ccccc41)C3)CCC2          IC50  10 to 100 µM
2  CN1Cc2c(nc(OC[C@@]34CCCN3C[C@H](F)C4)nc2N2CCCn3nc(-c4cccc(O)n4)cc3C2)C[C@]12CCCc1ccccc12          IC50      > 100 µM
3  CN(C)C(=O)c1cc2n(n1)CCCN(c1nc(OC[C@@]34CCCN3C[C@H](F)C4)nc3c1CN(C)C1(CCCc4ccc(O)cc41)C3)C2 (stereo partly shown)          IC50      > 100 µM

Return reported IC50; argument: Oc1ccc2c(c1)C1(CCC2)Cc2nc(OC[C@@]34CCCN3C[C@H](F)C4)nc(N3CCCCCC3)c2CO1 (single isomer, unassigned) [Compound 8]
> 100 µM

Same for CN(C)C(=O)c1nn2c(c1Cl)CN(c1nc(OC[C@@]34CCCN3C[C@H](F)C4)nc3c1CN(C)[C@@]1(CCc4c(Cl)cccc41)C3)CCC2
10 to 100 µM

Same thing, different compound: F[C@H]1CN2CCC[C@@]2(COc2nc3c(c(N4CCCCCC4)n2)COC2(CCc4c(Cl)cccc42)C3)C1 (stereo partly shown)
> 100 µM

CN(C)C(=O)c1cc2n(n1)CCCN(c1nc(OC[C@@]34CCCN3C[C@H](F)C4)nc3c1COC1(CCCc4ccc(O)c(Cl)c41)C3)C2 (stereo partly shown) ?
> 100 µM

----------
Molecular target: KRAS G12D/RAF1 (Homo sapiens, UniProt P01116, G12D)
Construct: KRAS (1-169) proteins were expressed in E. coli at 18° C; His6-MBP (N, cleaved yes)
Experiment: Protein-protein interaction (PPI) HTRF assay KRAS G12D/RAF1
Details: KRAS G12D/RAF1, GppNHp-loaded KRAS; 30 minutes pre-incubation
Text: Biotinylated KRAS wt and KRAS G12DNV proteins were expressed and purified in conditions similar to those previously reported (Tran, et al., 2021) (Zhang, et al., 2020). […] When RAS proteins are in the active GTP-bound conformation, they bind the effector protein RAF1 at the N-terminus Ras-binding domain (RBD, residues 52-131) (Tran, et al., 2021). Homogenous time resolved fluorescence (HTRF) was used to monitor the interaction between wt or mutant KRAS and RAF1 or wt NRAS and RAFT. […]
Catalogue of IC50 values

Here are 5 molecules together with their reported answers.
molecule	IC50
OC1CCCN(c2nc(OC[C@@]34CCCN3C[C@H](F)C4)nc3c2COC2(CCc4c(Cl)cccc42)C3)CC1 (mixture of isomers) [Compound 6]	> 100 µM
F[C@H]1CN2CCC[C@@]2(COc2nc3c(c(N4CCC=CCC4)n2)COC2(CCc4c(Cl)cccc42)C3)C1 (some centres unmarked) [Compound 18]	10 to 100 µM
N#CNC1CCCN(c2nc(OC[C@@]34CCCN3C[C@H](F)C4)nc3c2COC2(CCc4c(Cl)cccc42)C3)C1 (some centres unmarked) [Compound 29]	10 to 100 µM
CN(C)CC1(COc2nc3c(c(N4CCCn5nc(C(=O)N(C)C)c(Cl)c5C4)n2)CN(C)[C@@]2(CCCc4ccccc42)C3)CC1(F)F (some centres unmarked) [Compound 97]	> 100 µM
C[C@@]1(O)CCCN(c2nc(OC[C@@]34CCCN3C[C@H](F)C4)nc3c2COC2(CCc4c(Cl)cccc42)C3)C1 (some centres unmarked) [Compound 23]	10 to 100 µM

Give the reported IC50 for CN1Cc2c(nc(OC[C@@]34CCCN3C[C@H](F)C4)nc2N2CCCCCC2)C[C@]12CCc1c(Cl)cccc12 [Compound 28A] (system: KRAS G12D/RAF1 (Homo sapiens, UniProt P01116, G12D)).
> 100 µM

Subsequent entry: CN1Cc2c(nc(OC[C@@]34CCCN3C[C@H](F)C4)nc2N2CCCn3nc(-c4ccccn4)cc3C2)C[C@]12CCCc1ccccc12 [Compound 88]
> 100 µM

Try this molecule next: OC1CCCN(c2nc(OC[C@@]34CCCN3C[C@H](F)C4)nc3c2COC2(CCCc4c(Cl)cccc42)C3)CC1 (some centres unmarked) [Compound 15]
> 100 µM
